Each entry below lists one item and its recorded Emax at 30 µM value.
system-under-test: mAChR M4 (Homo sapiens)
Construct: expressed in transfected cells; host or cells: CHO-K1 cells stably transfected with M4 cDNA and chimeric G-protein Gqi5
Sequence (P08173 1-479): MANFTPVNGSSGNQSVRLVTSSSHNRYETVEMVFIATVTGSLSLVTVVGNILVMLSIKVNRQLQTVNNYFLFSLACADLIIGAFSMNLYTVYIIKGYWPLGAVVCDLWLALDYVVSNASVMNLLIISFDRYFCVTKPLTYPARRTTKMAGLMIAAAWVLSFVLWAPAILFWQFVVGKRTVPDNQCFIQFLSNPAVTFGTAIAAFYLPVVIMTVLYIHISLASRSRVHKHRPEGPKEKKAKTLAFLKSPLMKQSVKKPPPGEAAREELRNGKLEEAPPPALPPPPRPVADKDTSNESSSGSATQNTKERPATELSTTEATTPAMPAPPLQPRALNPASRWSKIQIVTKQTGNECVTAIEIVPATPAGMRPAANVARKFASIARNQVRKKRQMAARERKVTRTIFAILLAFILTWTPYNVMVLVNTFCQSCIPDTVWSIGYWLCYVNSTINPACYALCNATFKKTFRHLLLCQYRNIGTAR
protocol-details: mAChR M4 cell-based functional assay (calcium mobilization, potentiation of EC20 acetylcholine response)
assay-conditions: % ACh maximum at 30 μM
assay-endpoint: Emax at 30 µM (%)

• CCCCCC(=O)NC1CCN(C(=O)c2sc3nnc(C)c(C)c3c2N)C1 (centres unmarked) = 61
• Cc1nnc2sc(C(=O)N[C@H]3CCN(S(C)(=O)=O)C3)c(N)c2c1C = 59
• Cc1nnc2sc(C(=O)NC3CN(C(=O)Nc4ccccc4)C3)c(N)c2c1C = 64
• Cc1nnc2sc(C(=O)N3CC(F)(c4ccc(-c5cncnc5)cc4)C3)c(N)c2c1C = 50
• Cc1nnc2sc(C(=O)NC3CCN(C(=O)C4CC4)C3)c(N)c2c1C (centres unmarked) = 79
• Cc1nnc2sc(C(=O)N3CC(NCc4ccncc4)C3)c(N)c2c1C = 41
• Cc1nnc2sc(C(=O)N3CC(F)(c4ccc(S(=O)(=O)C(F)(F)F)cc4)C3)c(N)c2c1C = 46
• Cc1nnc2sc(C(=O)N3CC(NC(=O)C4CC4)C3)c(N)c2c1C = 41

###

system-under-test: mAChR M4 (Homo sapiens)
Construct: expressed in transfected cells; host or cells: CHO-K1 cells stably transfected with M4 cDNA and chimeric G-protein Gqi5
Sequence (P08173 1-479): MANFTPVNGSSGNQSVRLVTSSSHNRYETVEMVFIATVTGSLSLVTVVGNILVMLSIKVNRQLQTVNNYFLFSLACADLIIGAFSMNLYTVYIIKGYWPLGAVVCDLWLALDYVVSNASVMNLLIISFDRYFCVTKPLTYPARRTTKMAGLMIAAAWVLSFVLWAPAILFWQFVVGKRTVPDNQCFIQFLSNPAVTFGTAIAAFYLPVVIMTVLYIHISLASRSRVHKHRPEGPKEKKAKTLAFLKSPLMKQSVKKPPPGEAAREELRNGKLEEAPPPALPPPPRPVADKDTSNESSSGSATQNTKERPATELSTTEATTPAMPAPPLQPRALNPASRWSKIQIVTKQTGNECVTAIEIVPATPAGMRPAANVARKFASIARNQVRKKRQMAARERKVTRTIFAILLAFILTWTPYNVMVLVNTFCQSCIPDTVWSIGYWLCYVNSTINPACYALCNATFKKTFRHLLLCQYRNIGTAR
protocol-details: mAChR M4 cell-based functional assay (calcium mobilization, potentiation of EC20 acetylcholine response)
assay-conditions: mAChR M4 cell-based functional assay; >10,000 estimated for low potency compounds without plateau; read-out: EC50
Each entry below lists one item and its recorded EC50 value.
assay-endpoint: EC50 (nM)

• Cc1nnc2sc(C(=O)N3CC(NCc4ccccc4)C3)c(N)c2c1C = 3600
• CCOc1ccc(CNC(=O)c2sc3nnc(C)c(C)c3c2N)cc1 = 25
• Cc1nnc2sc(C(=O)NC3CN(C(=O)c4ccc(OC(F)(F)F)cc4)C3)c(N)c2c1C = 120
• Cc1nnc2sc(C(=O)NC3CCN(c4ccccc4Cl)C3)c(N)c2c1C (centres unmarked) = 38
• COc1ccc(C(C)CNC(=O)c2sc3nnc(C)c(C)c3c2N)cc1 (centres unmarked) = 350
• Cc1nnc2sc(C(=O)N3CC(F)(c4cccnc4)C3)c(N)c2c1C = 850
• Cc1nnc2sc(C(=O)N3CC(NC(=O)OCc4ccccc4)C3)c(N)c2c1C = 560
• Cc1nnc2sc(C(=O)NC3CN(C(=O)c4ccccc4F)C3)c(N)c2c1C = 200
• Nc1c(C(=O)NCC2CC2)sc2nnc3c(c12)CCCC3 = 790
• Cc1nnc2sc(C(=O)NC3CCN(c4ccc(C(F)(F)F)cc4)C3)c(N)c2c1C (centres unmarked) = 180
• Cc1nnc2sc(C(=O)NC3CN(C(=O)c4ccncc4)C3)c(N)c2c1C = 190
• Cc1nnc2sc(C(=O)NCc3ccc(-n4cccn4)cc3)c(N)c2c1C = 150
• Cc1nnc2sc(C(=O)NCc3ccc(C#N)c(F)c3)c(N)c2c1C = 340
• Cc1nnc2sc(C(=O)NCc3ccc(-c4ccc5occc5c4)cc3)c(N)c2c1C = 150
• Cc1nnc2sc(C(=O)NCc3cccc(F)c3)c(N)c2c1C = 140
• COc1ccc(OC(=O)N2CC(NC(=O)c3sc4nnc(C)c(C)c4c3N)C2)cc1 = 13
• Cc1nnc2sc(C(=O)NC3CN(C(=O)Nc4ccc(C(C)C)cc4)C3)c(N)c2c1C = 26
• COc1ccc(NC(=O)N2CC(NC(=O)c3sc4nnc(C)c(C)c4c3N)C2)cc1 = 48
• Cc1nnc2sc(C(=O)NCc3ccc(O)c(F)c3)c(N)c2c1C = 28
• Cc1nnc2sc(C(=O)NC3CCN(C(=O)Cc4ccccc4)C3)c(N)c2c1C (centres unmarked) = 360
• Cc1nnc2sc(C(=O)NC3CCN(C(=O)c4ccc(F)cc4)C3)c(N)c2c1C (centres unmarked) = 350
• Cc1nnc2sc(C(=O)NC3CCN(C(=O)c4c(F)cccc4F)C3)c(N)c2c1C (centres unmarked) = 590
• Cc1nnc2sc(C(=O)NCc3ccc(S(=O)(=O)CCO[Si](c4ccccc4)(c4ccccc4)C(C)(C)C)cc3)c(N)c2c1C = 890
• Cc1nnc2sc(C(=O)NC3CN(C(=O)Nc4ccccc4F)C3)c(N)c2c1C = 44
• Cc1nnc2sc(C(=O)N3CCC(NC(=O)c4ccccc4)C3)c(N)c2c1C (centres unmarked) = 4600
• Cc1nnc2sc(C(=O)NC3CN(C(=O)Oc4cc(F)cc(F)c4)C3)c(N)c2c1C = 10
• COc1ccc(CNC(=O)c2sc3nnc(C)c(C)c3c2N)cc1C(F)(F)F = 23
• Cc1nnc2sc(C(=O)NC3CCN(C(=O)c4cccs4)C3)c(N)c2c1C (centres unmarked) = 91
• Cc1nnc2sc(C(=O)NCc3ccc4c(cnn4C)c3)c(N)c2c1C = 190

###

system-under-test: mAChR M4 (Homo sapiens, UniProt P08173)
Construct: expressed in transfected cells; host or cells: CHO-K1 cells stably transfected with M4 cDNA and chimeric G-protein Gqi5
Sequence (P08173 1-479): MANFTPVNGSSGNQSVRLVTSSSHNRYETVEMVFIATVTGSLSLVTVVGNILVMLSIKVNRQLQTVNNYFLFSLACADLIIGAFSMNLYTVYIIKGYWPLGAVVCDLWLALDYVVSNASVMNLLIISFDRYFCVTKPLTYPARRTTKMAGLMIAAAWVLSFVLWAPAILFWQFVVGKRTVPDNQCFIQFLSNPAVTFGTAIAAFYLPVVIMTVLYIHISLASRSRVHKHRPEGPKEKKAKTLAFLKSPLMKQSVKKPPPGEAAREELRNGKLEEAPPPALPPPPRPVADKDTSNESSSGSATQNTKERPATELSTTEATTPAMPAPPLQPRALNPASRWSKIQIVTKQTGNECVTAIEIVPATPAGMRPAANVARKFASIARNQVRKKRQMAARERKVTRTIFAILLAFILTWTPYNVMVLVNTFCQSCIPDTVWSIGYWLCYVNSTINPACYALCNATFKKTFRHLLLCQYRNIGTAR
protocol-details: mAChR M4 cell-based functional assay (calcium mobilization, potentiation of EC20 acetylcholine response)
assay-conditions: EC50 (nM)
Each entry below lists one item and its recorded EC50 value.
assay-endpoint: EC50 (nM)

* CSc1ccc(CNC(=O)c2sc3nnc(C)c(C)c3c2N)cc1 | 11
* Cc1nnc2sc(C(=O)NCc3ccc(S(F)(F)(F)(F)F)cc3)c(N)c2c1C | 30
* Cc1nnc2sc(C(=O)NCc3ccc(S(=O)(=O)C(F)F)cc3)c(N)c2c1C | 18
* Cc1nnc2sc(C(=O)NCc3ccc(S(=O)(=O)C4CC4)cc3)c(N)c2c1C | 23
* Cc1nnc2sc(C(=O)NCc3cccc(S(C)(=O)=O)c3)c(N)c2c1C | 420
* Cc1nnc2sc(C(=O)NCc3ccc([S+](C)[O-])cc3)c(N)c2c1C (stereo not shown) | 140
* Cc1nnc2sc(C(=O)NCc3ccc(S(=O)(=O)C(C)C)cc3)c(N)c2c1C | 48
